z-score overview
TEST_NAME: modulators of S6 phosphorylation in cells, primary screen, cell-based, A549, cytoblot, luminescence, serum-stimulated (AID 1158);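 further: serum-stimulated A549 lung adenocarcinoma cells; signal is phosphorylated S6 detected by cytoblot immunostaining with HRP secondary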
APPLIED_CONDITIONS: A549 phospho-S6 cytoblot, 5 h, higher = more signal
OUTCOME_MEASURE: z-score

In [3]: df
Out[3]:
                                   compound  data_value
0  CC(C)C[C@@H]1NC(=O)[C@@H]2C[C@H](C(=O)NCCCCCNC(=O)CS)[C@H](c3ccc(O)cc3)N2C1=O        2.48
1  CCCCCN1CC=CC23O[C@@H]4/C=C\CCCOC(=O)C4[C@H]2C(=O)N(CCCCCO)[C@@H]3C1=O (some centres not stated)     -0.0754
2  Cc1ccc(S[C@]2(C(=O)NCc3ccccc3)CC(=O)N(Cc3ccccc3C(F)(F)F)[C@@H]2c2ccc(CO)cc2I)cc1       0.316
3  COC(=O)[C@@]1(Cc2ccc(F)cc2)[C@H]2c3cc(C(=O)N4CCCC4)n(Cc4ccc(C(F)(F)F)nc4)c3C[C@H]2CN1C(=O)c1ccccc1      -0.186
4  C=CCNC(=O)[C@H]1[C@@H]2C(=O)O[C@@H](c3ccccc3)[C@@H](c3ccccc3)N2[C@@H](c2ccc(O)cc2)[C@]12C(=O)Nc1ccccc12       0.288
5  [N-]=[N+]=NCc1ccccc1[C@H]1OC(c2ccc(OCCCO)cc2)=N[C@@]1(Cc1ccccc1N=[N+]=[N-])C(=O)O      -0.314
6  C=CC[C@]1(C(=O)NCC(O)CO)N=C(c2ccc(OCCCO)cc2)O[C@H]1c1ccccc1CN=[N+]=[N-] (some centres not stated)       -0.99
